- Protocol description: Cmax in rat at 100 mg/kg, sc
- Type: ADME, organism-based
- Design: dose 100 mg/kg, route subcutaneous
- Measurement conditions: in vivo
Experimental readout: Cmax
Reply with a number, then the unit it belongs to.

Which Cmax is listed for CCCn1c(CN2C(=O)COc3c(C)cc(C)cc32)nnc1-c1ccccn1 ?
1050 nM

###

As shown below, each of these compounds has a reported solubility value.
- Protocol description: Solubility of the compound in phosphate buffered saline
- Assay type: physicochemical
State the answer as a number, implicitly in µg/mL.

Chemical structure: CCCn1c(CN2C(=O)COc3c(C)cc(C)cc32)nnc1C1Cc2ccccc2C1
Unit of measurement: µg/mL
solubility: 35

As a next step, examine the compound that follows.
Which solubility is listed for CCCn1c(CN2C(=O)COc3c2cc(Cl)cc3[N+](=O)[O-])nnc1-c1ncccc1C ?
80

###

- Protocol description: Solubility of the compound in phosphate buffered saline
- Assay type: physicochemical
Experimental readout: solubility (µg/mL)
State the answer as a number, implicitly in µg/mL.

Chemical structure: CCCn1c(CN2C(=O)COc3c(C)cc(C)cc32)nnc1-c1ccccn1
solubility (µg/mL): 64
--
Chemical structure: CCCn1c(CN2C(=O)COc3c(C)cc(C)cc32)nnc1[C@@H]1CCc2ccccc2C1
solubility (µg/mL): 23
--
Chemical structure: CCCn1c(CN2C(=O)COc3c2cc(C)cc3[N+](=O)[O-])nnc1-c1ccc(Cl)cn1
solubility (µg/mL): 2
--
Chemical structure: CCCn1c(CN2C(=O)COc3c(C)cc(C)cc32)nnc1-c1ccc(Cl)cn1
solubility (µg/mL): 1.1
--
Chemical structure: O=C1COc2c(Cl)cc(Cl)cc2N1Cc1nnc(CCc2ccc(Cl)cc2)n1CCC(F)(F)F
solubility (µg/mL): 1.6

Which solubility is listed for CCCn1c(CN2C(=O)COc3c(C)cc(C)cc32)nnc1[C@@H]1C[C@H]1c1ccccc1 ?
19

Which solubility is listed for O=C1COc2c(cc(Cl)cc2[N+](=O)[O-])N1Cc1nnc(-c2ccc(Cl)cn2)n1CCC(F)(F)F ?
2.2

Which solubility is listed for CCCn1c(CN2C(=O)COc3c2cc(Cl)cc3[N+](=O)[O-])nnc1-c1ccc(Cl)cn1 ?
1

Recorded values, source ChEMBL document CHEMBL1777714.
